# target: T1, full length recombinant human 2N4R tau (amino acids 1-441) (human, UniProt P10636 1-758)
# T1 construct: Bought (rPeptide); recombinant, non-phosphorylated; also called recombinant tau
# T1 sequence (P10636 other isoform, or with tags, fused parts or gaps limits assumed): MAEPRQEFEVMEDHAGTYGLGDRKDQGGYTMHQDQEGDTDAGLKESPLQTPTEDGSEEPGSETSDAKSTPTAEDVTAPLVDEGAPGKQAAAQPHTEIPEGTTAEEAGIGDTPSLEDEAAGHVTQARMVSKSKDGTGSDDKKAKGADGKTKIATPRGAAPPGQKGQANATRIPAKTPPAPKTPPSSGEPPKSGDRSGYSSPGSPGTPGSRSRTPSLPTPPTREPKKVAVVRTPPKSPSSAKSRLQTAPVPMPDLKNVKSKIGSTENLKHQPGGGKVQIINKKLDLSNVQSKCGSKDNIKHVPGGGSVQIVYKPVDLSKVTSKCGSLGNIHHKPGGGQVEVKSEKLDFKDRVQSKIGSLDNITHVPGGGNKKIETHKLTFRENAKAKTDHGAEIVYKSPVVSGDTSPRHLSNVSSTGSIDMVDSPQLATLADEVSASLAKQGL
# test protocol: SPR Biacore MCK, purified IgG on Protein A, tau analyte
Could you label it criterion met if measured kon is 70000 M⁻¹ s⁻¹ or higher, and criterion not met otherwise?

>  <binder>
Clone 27 (VH4Vκ2), humanised variant of clone #28, human IgG1 (antibody, V domains shown, also called VH4VK2; VH4Vk2) VH: QVQLQESGPGLVKPSETLSLTCTVSGFSLNNYDMSWVRQAPGKGLEWIGTVSTTYRRYYASWAKGRFTISKDTSSTTVDLQMTSLTAEDTATYFCAASGIWGRGTLVTVSS VL: AQVLTQSPSTLSASVGDRVTITCQSSQRVYSNYLAWYQQKPGQPPKRLIFLASTLESGVPSRFSGSGSGTEFTLTISSLQPDDFATYYCAGTYTGSIWAFGGGTKVEIK

>  <qualitative label>
criterion not met

$$$$
>  <binder>
Clone 24 (VH3Vκ4), humanised variant of clone #28, human IgG1 (antibody, V domains shown, also called VH3VK4; VH3Vk4) VH: QVQLQESGPGLVKPSETLSLTCTVSGFSLNNYDMSWVRQAPGKGLEWIGTVSTTYRRYYASWAKGRFTISKTSSTTVDLQMTSLTAEDTATYFCAASGIWGRGTLVTVSS VL: DIQMTQSPSTLSASVGDRVTITCQSSQRVYSNYLAWYQQKPGQPPKRLIFLASTLESGVPSRFSGSGSGTEFTLTISSLQPDDFATYYCAGTYTGSIWAFGGGTKVEIK

>  <qualitative label>
criterion met

$$$$
>  <binder>
Clone 31 (VH5Vκ2), humanised variant of clone #28, human IgG1 (antibody, V domains shown, also called VH5VK2; VH5Vk2) VH: QVQLQESGPGLVKPSETLSLTCTVSGFSLNNYDMSWVRQAPGKGLEWIGTVSTTYRRYYASWAKGRFTISRDNSKNTLDLQMTSLTAEDTATYFCAASGIWGRGTLVTVSS VL: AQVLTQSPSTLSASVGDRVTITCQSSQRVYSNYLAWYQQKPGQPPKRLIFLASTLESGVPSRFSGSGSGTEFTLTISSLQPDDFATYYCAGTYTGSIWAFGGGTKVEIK

>  <qualitative label>
criterion met

$$$$
>  <binder>
Clone #28 VH0VK0 chimeric human IgG1 (rabbit VH and VK of Clone 1) (antibody, V domains shown, also called VH0Vκ0; #28 VH0κ0) VH: QSLEESGGGLVKPGGTLTLTCTVSGFSLNNYDMSWVRQAPGKGLEWIGTVSTTYRRYYASWAKGRFTISKTSSTTVDLKMTSLTTEDTATYFCAASGIWGPGTLVTVSL VL: AQVLTQTTSPVSAAVGGTVTINCQSSQRVYSNYLAWYQQKPGQPPKRLIFLASTLESGVPSRFSGSGSGTQFTLTISDLECDDAATYYCAGTYTGSIWAFGGGTEVVVK

>  <qualitative label>
criterion met

$$$$
